Catalogue of compounds with associated IC50
# TARGET_SYSTEM: system Xc^− (Homo sapiens, UniProt Q9UPY5)
# Sequence (Q9UPY5 whole entry): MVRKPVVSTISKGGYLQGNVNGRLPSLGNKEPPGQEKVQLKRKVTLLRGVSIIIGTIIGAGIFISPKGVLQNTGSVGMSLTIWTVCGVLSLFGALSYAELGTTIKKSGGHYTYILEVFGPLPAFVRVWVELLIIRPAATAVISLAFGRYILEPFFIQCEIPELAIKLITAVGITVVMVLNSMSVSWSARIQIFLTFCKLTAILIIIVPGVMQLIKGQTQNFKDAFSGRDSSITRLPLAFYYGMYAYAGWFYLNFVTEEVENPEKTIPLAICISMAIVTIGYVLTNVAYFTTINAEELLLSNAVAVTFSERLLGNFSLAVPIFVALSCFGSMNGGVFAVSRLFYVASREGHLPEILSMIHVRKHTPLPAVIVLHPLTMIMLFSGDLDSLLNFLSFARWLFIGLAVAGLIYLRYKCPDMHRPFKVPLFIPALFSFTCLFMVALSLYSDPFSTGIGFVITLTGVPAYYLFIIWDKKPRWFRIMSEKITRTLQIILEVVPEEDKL
# Sequence (P08195 102-630 partner): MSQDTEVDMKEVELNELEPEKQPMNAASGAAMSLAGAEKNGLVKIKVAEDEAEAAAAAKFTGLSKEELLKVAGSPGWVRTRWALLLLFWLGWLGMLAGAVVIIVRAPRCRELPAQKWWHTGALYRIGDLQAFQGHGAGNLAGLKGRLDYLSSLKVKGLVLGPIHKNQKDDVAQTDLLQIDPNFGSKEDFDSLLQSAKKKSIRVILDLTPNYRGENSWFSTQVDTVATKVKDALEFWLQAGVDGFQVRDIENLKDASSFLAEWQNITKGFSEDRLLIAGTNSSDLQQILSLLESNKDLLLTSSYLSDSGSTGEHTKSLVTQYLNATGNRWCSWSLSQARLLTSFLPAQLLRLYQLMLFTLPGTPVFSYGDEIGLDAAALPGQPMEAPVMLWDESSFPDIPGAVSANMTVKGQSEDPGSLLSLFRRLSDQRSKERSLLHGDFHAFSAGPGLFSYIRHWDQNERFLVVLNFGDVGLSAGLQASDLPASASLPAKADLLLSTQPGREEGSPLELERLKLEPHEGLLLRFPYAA
# ASSAY_DETAILS: [^14C]L-Cystine uptake assay
# Type: cell-based
# Set-up: endogenous in cells; host or cells: H4 cells
# CONDITION_SUMMARY: H4 cells, sodium-free HEPES buffer, 0.5 μM L-[14C]Cystine and 4.5 μM L-Cystine, 1 hour at 37° C.; read-out: pIC50 [^14C] L-Cystine uptake assay (converted)

| COMPOUND | IC50 |
| --- | --- |
| Cc1cc2c(c(=O)n1C)-c1ccc(F)cc1C(C)C(=O)N2CC(=O)Nc1ccc(C(F)F)cc1 (stereo not shown) [#256] | < 15.8 nM |
| Cc1cc2c(c(=O)n1C)-c1cccnc1[C@@H](C)C(=O)N2CC(=O)Nc1ccc(C(F)F)cc1 (single isomer, unassigned) [#177] | < 15.8 nM |
| CC1C(=O)N(CC(=O)Nc2ccc(C(F)F)cc2)c2cc(N3CC(F)(F)C3)nc(F)c2-c2ccc(F)cc21 (single isomer, unassigned) [#291] | 15.8 to 39.8 nM |
| Cc1cc2c(c(F)n1)-c1cccnc1[C@@H](C)C(=O)N2CC(=O)Nc1ccc(C2CC2)c(F)c1 [#144] | < 15.8 nM |
| O=C(CN1C(=O)Cc2ncccc2-c2c1cc(N1CC(F)(F)C1)nc2F)Nc1ccc(C(F)F)cc1 [#295] | < 15.8 nM |
| Cc1cc2c(c(F)n1)-c1cccnc1[C@@H](C)C(=O)N2CC(=O)Nc1ccc(Cl)c(Cl)c1 [#150] | 15.8 to 39.8 nM |
| COc1cc2c(c(=O)n1C)-c1ccccc1C(C)C(=O)N2CC(=O)Nc1ccc(C(F)F)cc1 (stereo not shown) [#362] | < 15.8 nM |
